Where these numbers come from: paper PMC6264499

Answer each item with its documented inhibition at 1000 µM.
Tested On: recombinant KPC-2 (Klebsiella pneumoniae, UniProt Q9F663)
Construct: made in house; host or cells: E. coli BL21 (DE3)
Sequence (Q9F663 25-293, looked up): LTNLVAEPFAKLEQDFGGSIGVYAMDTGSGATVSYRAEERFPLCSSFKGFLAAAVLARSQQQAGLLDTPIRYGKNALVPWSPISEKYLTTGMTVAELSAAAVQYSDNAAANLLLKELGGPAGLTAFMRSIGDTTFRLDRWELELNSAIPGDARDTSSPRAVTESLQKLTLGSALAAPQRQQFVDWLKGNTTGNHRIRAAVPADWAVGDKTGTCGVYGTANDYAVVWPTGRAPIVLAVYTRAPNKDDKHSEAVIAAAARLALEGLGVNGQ
Test Protocol: KPC-2 inhibition assay, CENTA as reporter substrate
Type: biochemical
Condition Label: read-out: percent inhibition at the highest tested concentration
Answer format: numeric, % implied, no suffix.

Data request: Item Cn1c(=O)c2n[nH]c(=O)nc2n(C)c1=O [14a] has what recorded inhibition at 1000 µM?
Data returned: 26

Data request: Entry `CCOc1ccc(NS(C)(=O)=O)cc1` : reported inhibition at 1000 µM = ?
Data returned: 12

Data request: Look up inhibition at 1000 µM: CN(Cc1cnccn1)Cc1cccc(C(=O)O)n1 [23a]
Data returned: 26

Data request: Please look up its inhibition at 1000 µM: O=C(NC1CC1)c1ccc(-c2nnn[nH]2)cc1 [18a]
Data returned: 18

Data request: Which inhibition at 1000 µM reading was recorded for the compound Cc1nn(CC(=O)O)c(C)c1NS(=O)(=O)CC(F)(F)F [29a] ?
Data returned: 15

Data request: Look up inhibition at 1000 µM: Cc1nn(CC(=O)O)c2[nH]c(=O)cc(C(F)F)c12 [16a]
Data returned: 17

Data request: Quick check: inhibition at 1000 µM of CS(=O)(=O)Nc1ccc2oc(=O)sc2c1 [31a] ?
Data returned: 11

Data request: Fill blank: measured inhibition at 1000 µM of the compound O=c1ccc(O)nn1-c1nnn[nH]1 [17a] is ____.
Data returned: 23

Data request: Return reported inhibition at 1000 µM; argument: `CS(=O)(=O)Nc1ccc(C(N)=O)cc1`
Data returned: 18

Data request: # inhibition at 1000 µM lookup, item COCc1nc2cc(NS(C)(=O)=O)ccc2o1 [21a]
Data returned: 12
